EXPERIMENT SUMMARY: Cytotoxicity against human erythrocytes assessed as hemolytic activity after 60 mins
Format: cell-based, Erythrocyte
TEST CONDITIONS: read-out: HD50
READOUT KIND: HC50 at 1 h (µM)
Give bare numbers, in µM.

Solved cases below.
| COMPOUND | READING UNIT | HC50 at 1 h |
| --- | --- | --- |
| C[C@@H]1CC[C@@]2(OC1)O[C@H]1C[C@H]3[C@@H]4CC=C5C[C@@H](O[C@@H]6O[C@H](CNC(=O)CCCCl)[C@@H](O[C@H]7O[C@H](C)[C@@H](O)[C@H](O)[C@@H]7O)[C@H](O)[C@H]6O[C@H]6O[C@H](C)[C@@H](O)[C@H](O)[C@@H]6O)CC[C@]5(C)[C@H]4CC[C@]3(C)[C@H]1[C@@H]2C | µM | 20.9 |
| C[C@@H]1CC[C@@]2(OC1)O[C@H]1C[C@H]3[C@@H]4CC=C5C[C@@H](O[C@@H]6O[C@H](CO)[C@@H](O)[C@H](O[C@@H]7O[C@@H](C)[C@H](O)[C@@H](O)[C@H]7O)[C@H]6O[C@H]6O[C@H](C)[C@@H](O)[C@H](O)[C@@H]6O)CC[C@]5(C)[C@H]4CC[C@]3(C)[C@H]1[C@@H]2C [TACCAOSIDE] | µM | 6.8 |
| C[C@@H]1CC[C@@]2(OC1)O[C@H]1C[C@H]3[C@@H]4CC=C5C[C@@H](O[C@@H]6O[C@H](CNC(=O)/C=C/c7ccccc7)[C@@H](O[C@H]7O[C@H](C)[C@@H](O)[C@H](O)[C@@H]7O)[C@H](O)[C@H]6O[C@H]6O[C@H](C)[C@@H](O)[C@H](O)[C@@H]6O)CC[C@]5(C)[C@H]4CC[C@]3(C)[C@H]1[C@@H]2C | µM | 11.8 |

Now consider the entry below.
Which HC50 at 1 h reading was recorded for the compound CCCCCC(=O)O[C@H]1C[C@@H]2[C@H](CC[C@]3(C)[C@@H]4[C@H](C[C@@H]23)O[C@]2(CC[C@@H](C)CO2)[C@H]4C)[C@@]2(C)C[C@@H](O)[C@H](O[C@@H]3O[C@H](CO)[C@@H](O[C@H]4O[C@H](C)[C@@H](O)[C@H](O)[C@@H]4O)[C@H](O)[C@H]3O[C@H]3O[C@H](C)[C@@H](O)[C@H](O)[C@@H]3O)C[C@H]12 ?
7.6
